pIC50 tested on NAMPT (Homo sapiens): recorded values
Sequence (P43490 whole entry): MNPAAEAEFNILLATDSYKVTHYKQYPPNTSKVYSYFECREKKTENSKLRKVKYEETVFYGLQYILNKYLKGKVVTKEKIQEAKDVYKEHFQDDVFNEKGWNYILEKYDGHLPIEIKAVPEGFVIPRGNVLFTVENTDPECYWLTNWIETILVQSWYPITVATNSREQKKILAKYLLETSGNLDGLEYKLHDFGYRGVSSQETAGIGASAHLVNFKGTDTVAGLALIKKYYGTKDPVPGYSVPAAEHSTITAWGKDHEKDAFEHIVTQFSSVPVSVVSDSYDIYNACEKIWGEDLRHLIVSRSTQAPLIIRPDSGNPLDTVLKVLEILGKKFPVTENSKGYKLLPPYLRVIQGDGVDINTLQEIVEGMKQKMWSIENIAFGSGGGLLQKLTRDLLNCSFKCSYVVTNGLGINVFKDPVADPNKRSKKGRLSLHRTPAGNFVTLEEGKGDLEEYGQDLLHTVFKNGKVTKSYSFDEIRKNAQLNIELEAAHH
Value format note: pIC50 is -log10 of concentration (mol/L); just state the number.

| Compound | pIC50 |
| --- | --- |
| O=C(Nc1ccc(OC2CCN(C(=O)c3ccoc3)CC2)cc1)C1CN(c2cccnc2)C1 | 9.09 |
| CC[C@H](C)C(=O)N1CCC(Oc2ccc(NC(=O)C3CN(c4cccnc4)C3)cc2)CC1 | 9.55 |
| CCCC(C)C(=O)N1CCC(c2ccc(NC(=O)C3CN(c4cccnn4)C3)cc2)CC1 (stereo not drawn) | 9.07 |
| Cc1ccc(C(=O)N2CCC(c3ccc(NC(=O)C4CN(c5cccnn5)C4)cc3)CC2)cc1C | 9.11 |
| O=C(Nc1ccc(OC2CCN(C(=O)c3ccc(F)c(F)c3)CC2)cc1)C1CN(c2cccnn2)C1 | 9.14 |

Supply recorded pIC50 for O=C(Nc1ccc(OC2CCN(C(=O)C3CCC(F)(F)CC3)CC2)cc1)C1CN(c2cccnn2)C1 here.
8.85

Supply recorded pIC50 for CC(C)Cn1cc(-c2ccc(C(=O)NC3CN(c4cccnn4)C3)o2)cn1 here.
9.53

Supply recorded pIC50 for COCCOCC(=O)N1CCC(Oc2ccc(NC(=O)C3CN(c4cccnc4)C3)cc2)CC1 here.
9.06

Supply recorded pIC50 for CCC(C)C(=O)N1CCC(c2ccc(NC(=O)C3CN(c4cccnn4)C3)cc2)CC1 (stereo not drawn) here.
9.13

Where do the numbers come from? From patent US8975398B2.
